Where do the numbers come from? From patent US6903104B2.

Tested on: hepatocellular HEP G2 cancer cells
Experiment: In vitro cytotoxicity MTS assay, hepatocellular HEP G2
Type: cell-based, human
Conditions: 72 hours
pIC50: −log10 of the molar value.
The threshold is inclusive: pIC50 of exactly 6 counts as 1; values below receive -1.

Query: Quick check: does Cc1cc(Cn2cc(C(=O)C(=O)Nc3ccc4ncccc4c3)c3ccccc32)on1 have pIC50 greater than or equal to 6?
Reply: 1

Query: Given N#Cc1ccc(Cn2cc(C(=O)C(=O)Nc3ccc4ncccc4c3)c3ccccc32)cc1 , state whether its pIC50 is at least 6.
Reply: 1

Query: Could you tell me if the measured pIC50 of CCc1cc(Cn2cc(C(=O)C(=O)Nc3cc(C)ns3)c3ccccc32)on1 reaches 6 or more?
Reply: -1

Query: Does Cc1cc(NC(=O)C(=O)c2cn(Cc3ccno3)c3ccccc23)sn1 have a reported pIC50 of at least 6?
Reply: -1

Query: Kindly determine if pIC50 recorded for Cc1cc(Cn2cc(C(=O)C(=O)Nc3ccc(Br)cc3)c3ccccc32)on1 is above or exactly 6.
Reply: -1

Please find the next compound below.
Query: Does the compound O=C(Nc1ccc2ncccc2c1)C(=O)c1cn(Cc2ccsc2)c2ccccc12 have recorded pIC50 that is 6 or more?
Reply: -1
